Provide the reported solubility (mole fraction) of each item.
Experimental setup: in acetonitrile, 273.15 K
In your answer, state the number alone without any accompanying words.

Give its solubility (mole fraction) value. Item: O=C(O)Cc1ccccc1Cl
0.0582

# input compound: N=C(Nc1ccccc1)Nc1ccccc1 ; wanted: its solubility (mole fraction)
0.00811

====

Experimental setup: in isobutanol, 303.15 K
Assay readout: solubility (mole fraction)
Answer field: number only, no words.

Give its solubility (mole fraction) value. Item: O=C(O)Cc1ccccc1Cl
0.322

====

Experimental setup: in acetone, 313.15 K
Assay readout: solubility (mole fraction)
# respond with the number and nothing more

Which solubility (mole fraction) value belongs to O=C(O)Cc1ccccc1Cl ?
0.38

====

Experimental setup: in ethylbenzene, 318.15 K
Assay readout: solubility (mole fraction)
I'd appreciate a reply containing only the number, no unit.

Consider the compound shown here: O=C(O)Cc1ccccc1Cl What is its recorded solubility (mole fraction)?
0.165

====

Experimental setup: in 2-butanone, 313.15 K
Assay readout: solubility (mole fraction)
The response must contain the number and no unit.

State the recorded solubility (mole fraction) for this entry: O=C(O)Cc1ccccc1Cl
0.528

====

Experimental setup: in acetonitrile, 308.15 K
Assay readout: solubility (mole fraction)
Answer using only a numeral; do not append any unit.

Item under review: O=C(O)Cc1ccccc1Cl . Reported solubility (mole fraction)?
0.234

====

Experimental setup: in ethylbenzene, 298.15 K
Assay readout: solubility (mole fraction)
Number only, no unit.

What value of solubility (mole fraction) has been recorded for this entry: O=C(O)Cc1ccccc1Cl
0.0678

====

Experimental setup: in water, 273.15 K
Assay readout: solubility (mole fraction)
Answer with a bare number; do not write a unit.

Give the measured solubility (mole fraction) of O=C(O)Cc1ccccc1Cl .
0.000141

====

Experimental setup: in isobutanol, 318.15 K
Assay readout: solubility (mole fraction)
Provide a numeric answer; units are not to be included.

Tell me the measured solubility (mole fraction) of O=C(O)Cc1ccccc1Cl , please.
0.433

====

Experimental setup: in ethanol, 280.65 K
Assay readout: solubility (mole fraction)
// no unit string in output, number only

Look up solubility (mole fraction) for this compound: N=C(Nc1ccccc1)Nc1ccccc1
0.0191

====

Experimental setup: in acetone, 308.15 K
Assay readout: solubility (mole fraction)
Enter a number only.

Form field: reported solubility (mole fraction) of O=C(O)Cc1ccccc1Cl
0.352

====

Experimental setup: in ethyl acetate, 313.15 K
Assay readout: solubility (mole fraction)
API note: the answer field is a bare number with no unit suffix.

So what does the record say about solubility (mole fraction) for O=C(O)Cc1ccccc1Cl ?
0.372

====

Experimental setup: in isobutanol, 308.15 K
Assay readout: solubility (mole fraction)
Simply state the number, no unit and no words.

// solubility (mole fraction) lookup, key: O=C(O)Cc1ccccc1Cl
0.357

====

Experimental setup: in ethylbenzene, 278.15 K
Assay readout: solubility (mole fraction)
No unit in the answer, only the number.

solubility (mole fraction) for O=C(O)Cc1ccccc1Cl ?
0.0278

====

Experimental setup: in water, 293.15 K
Assay readout: solubility (mole fraction)
In your answer, state the number alone without any accompanying words.

Query: solubility (mole fraction); subject: O=C(O)Cc1ccccc1Cl
0.000394

====

Experimental setup: in isopropanol, 298.15 K
Assay readout: solubility (mole fraction)
Number, no unit, nothing else.

Given the entry O=C(O)Cc1ccccc1Cl , report its measured solubility (mole fraction).
0.336

meta.source: BigSolDB 2.1
